measured-on: Tryptase from human lung (human, UniProt Q15661 31-275)
Sequence (Q15661 31-275): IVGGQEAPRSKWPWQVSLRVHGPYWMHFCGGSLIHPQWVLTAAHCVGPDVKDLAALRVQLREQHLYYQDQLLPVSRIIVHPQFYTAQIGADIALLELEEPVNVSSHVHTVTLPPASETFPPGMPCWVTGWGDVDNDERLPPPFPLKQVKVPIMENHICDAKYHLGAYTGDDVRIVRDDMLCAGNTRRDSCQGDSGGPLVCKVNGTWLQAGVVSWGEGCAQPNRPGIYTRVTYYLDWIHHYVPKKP
experiment-description: substrate peptide degradation inhibition
pIC50: −log10 of the molar value.

binder: active MMP-9-binding peptide M91010 (designed binder) GSGMKETAAAKFERQHMDSPDLGTDDDDKAMADIGSANSDPQFGLFSKYRTPNCRKVGEPACQMSFNPVCGSDMSTYANECTLCMKIREGGHNIKIIRNGPCGASAAA
pIC50: < 6.00

binder: active MMP-9-binding peptide M91014 (designed binder) GSGMKETAAAKFERQHMDSPDLGTDDDDKAMADIGSANSDPQFGLFSKYRTPNCVMYKYAQCSHKYKPVCGSDMSTYANECTLCMKIREGGHNIKIIRNGPCGASAAA
pIC50: < 6.00

Data origin: patent US20200231654A1
